Answer each item with its documented melting point.

Noted for O=C1NC(=O)C(Cc2ccc(OCCN3CCOCC3)cc2)S1 (stereo not given) : its melting point reads 188 to 189 °C

Noted for CC(C)(C)OC(=O)NCC1(CC#N)CCCCC1 : its melting point reads 54 to 58 °C

Noted for COc1ccc(CNc2ncccc2C(=O)Nc2cccnc2Cl)cc1 : its melting point reads 122 to 124 °C

Noted for O=C1CCN(Cc2ccccc2)CC1C1c2ccccc2C=Cc2ccccc21 (stereo not given) : its melting point reads 167 to 169 °C

Noted for COc1ccc(C(=O)N2CC(O)CC2C(=O)O)cc1 (stereo not given) : its melting point reads 192 °C

Noted for O=C(O)c1cc2cc(OCc3ccccc3)ccc2cc1OCc1ccccc1 : its melting point reads 163 to 165 °C

Noted for CNCC(=O)NC(=O)N(CCCl)N=O : its melting point reads 86 to 88 °C

Noted for CCCOCc1cc2cc(-c3ccc4c(c3)C=C(C(=O)Nc3ccc(CN(C)C5CCOCC5)cc3)CCS4(=O)=O)ccc2o1 : its melting point reads 204 to 206 °C

Noted for O=C(Nc1ccc(OC(F)(F)F)cc1)NC1CCN(C(=O)CN2CCNCC2)CC1 : its melting point reads 111 to 122 °C

Noted for O=C(NC1CCN(Cc2ccccc2)CC1)c1ccccc1OCc1ccnc2ccccc12 : its melting point reads 144 to 146 °C
